biological target: Fibroblast growth factor 2 (Homo sapiens) (UniProt P09038); experiment: basic fibroblast growth factor binding to printed compounds – biochemical, small-molecule microarray, 635/667 nm fluorescence, primary screen (AID 1133); settings: FGF2, fluorescence 635/667, higher = more signal
Sequence (P09038 whole entry, looked up): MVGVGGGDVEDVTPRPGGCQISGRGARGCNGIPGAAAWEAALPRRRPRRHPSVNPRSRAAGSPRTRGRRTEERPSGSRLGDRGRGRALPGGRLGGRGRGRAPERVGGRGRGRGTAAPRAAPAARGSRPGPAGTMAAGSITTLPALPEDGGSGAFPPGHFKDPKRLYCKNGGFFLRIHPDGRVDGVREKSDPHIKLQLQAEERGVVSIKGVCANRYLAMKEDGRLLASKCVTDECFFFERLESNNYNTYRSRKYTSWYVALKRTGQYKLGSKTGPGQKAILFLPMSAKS
Give composite z-score for every item shown.
Give only the figure.

Value sought: composite z-score, system Fibroblast growth factor 2 (Homo sapiens) (UniProt P09038), item [N-]=[N+]=Nc1ccccc1C[C@]1(C(=O)O)COC(c2ccc(OCCCO)cc2)=N1 . Result: -0.717

Summary line: C=CCC(OC(C)=O)[C@@H]1[C@@H](N(Cc2cccc3ccccc23)C(=O)Cc2ccc(F)cc2)c2cc(OCCCO)ccc2N1C(=O)c1ccc2ccccc2c1 (some centres not stated) , Fibroblast growth factor 2 (Homo sapiens) (UniProt P09038), reported composite z-score = -0.328

GET /values?item= C=C[C@H]1C(C(=O)OCC)=CC[C@@H](c2ccccc2)N1S(=O)(=O)c1ccc(C)cc1 &system= Fibroblast growth factor 2 (Homo sapiens) (UniProt P09038) returns composite z-score: 0.0703

Entry COCCOC(=O)N1C(=O)[C@@]2(c3cc(C#CCCO)ccc31)[C@H](C(=O)Nc1nc3ccccc3s1)[C@H]1C(=O)O[C@H](c3ccccc3)[C@H](c3ccccc3)N1[C@@H]2c1ccc(O)cc1 , tested on Fibroblast growth factor 2 (Homo sapiens) (UniProt P09038), has a reported composite z-score of 1.28

Field composite z-score (system: Fibroblast growth factor 2 (Homo sapiens) (UniProt P09038)) for entry COc1ccc([Si](C)(C)[C@@H]2[C@@H](CCO)O[C@]3(C(=O)N(Cc4ccccc4)c4ccc(N5C(=O)c6cccc7cccc5c67)cc43)[C@H]2C)cc1 = -0.176

Form field, composite z-score with Fibroblast growth factor 2 (Homo sapiens) (UniProt P09038), item COC(=O)[C@]1(CCS(=O)(=O)c2ccccc2)N=C(c2ccc(OCCCO)cc2)O[C@@H]1c1ccccc1N=[N+]=[N-] : 1.75

Observed composite z-score on Fibroblast growth factor 2 (Homo sapiens) (UniProt P09038), entry C=CC[C@]1(C(=O)N2CCOCC2)COC(c2ccc(OCCCO)cc2)=N1 , equals 0.386

###

Assign composite z-score to each entry below.
target: Alpha-bungarotoxin (Bungarus multicinctus) (UniProt P60615); experiment: compounds binding labelled alpha-BTX control protein – biochemical, small-molecule microarray, Alexa647 label, 635/667 nm fluorescence, artefact control for SMM control protein annotation, profiling panel (AID 1117); settings: alpha-BTX-A647 binding fluorescence, higher = more signal
Sequence (P60615 whole entry, looked up): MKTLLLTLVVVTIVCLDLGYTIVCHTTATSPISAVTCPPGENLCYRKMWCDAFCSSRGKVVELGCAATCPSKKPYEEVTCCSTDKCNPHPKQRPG
Field format: numeric only.

# composite z-score of COC(=O)[C@@]1(Cc2ccc(OC)cc2)[C@H]2c3cc(C(=O)N4CCCC4)n(CCO)c3C[C@H]2CN1C(=O)c1ccccc1 = 0.365

Reported composite z-score for Cc1ccc(S[C@]2(C(=O)NC(C)C)CC(=O)N(Cc3cc(C(F)(F)F)cc(C(F)(F)F)c3)[C@@H]2c2ccc(CO)cc2)cc1 was 0.26

# composite z-score of CC(C)c1ccc(NN2C(C(O)c3ccc(F)cc3)C=CC3C(=O)N(c4ccccc4)C(=O)C32)cc1 (stereo not given) = 1.39

// field: composite z-score; key: CC(=O)NCCCC[C@@H]1NC(=O)[C@@H]2C[C@H](C(=O)NCCCCCN)[C@H](c3cccc(OCCO)c3)N2C1=O ; value = 1.16

COc1ccc(C#Cc2ccc3c(c2)[C@]2(C(=O)N3)[C@H](C(=O)O)[C@H]3C(=O)O[C@H](c4ccccc4)[C@H](c4ccccc4)N3[C@@H]2c2ccc(O)cc2)cc1 has a reported composite z-score of -0.204

Reported composite z-score ( C=CC[C@]1(C(=O)N2CCOCC2)COC(c2ccc(OCCCO)cc2)=N1 ) = 2.21

composite z-score reading for COC(=O)[C@@H]1N=C(c2ccc(OCCCO)cc2)O[C@@H]1c1ccccc1 : -0.213

Documented composite z-score of NC(=O)NCC#Cc1ccc2c(c1)[C@]1(C(=O)N2)[C@H](c2ccccc2OCCO)N2[C@H](c3ccccc3)[C@H](c3ccccc3)OC(=O)[C@H]2[C@@H]1C(=O)O : 0.589

Quick note, composite z-score for C=CCC(OC(C)=O)[C@@H]1[C@@H](N(Cc2ccc(-c3cccc(C(F)(F)F)c3)o2)C(=O)c2ccc(-c3ccccc3)cc2)c2cc(OCCCO)ccc2N1C(=O)Cc1ccc2ccccc2c1 (stereo not given in full) landed at -0.153

O=C(c1ccccc1)N1C(=O)[C@]2(Cc3ccccc31)N=C(c1ccc(OCCCO)cc1)O[C@@H]2c1ccccc1 has a reported composite z-score of 1.46

GET /value?item= CCCCC(CC)C(O)C1C=CC2C(=O)N(c3ccccc3)C(=O)C2N1Nc1ccc(C#N)cc1 (stereo not given) &field=composite z-score returns 1.45

composite z-score in this record for CN(C)C(=O)[C@]1(Cc2ccccc2CN=[N+]=[N-])N=C(c2ccc(OCCCO)cc2)O[C@@H]1c1ccccc1 : 1.92

Data point: NCCCCCNC(=O)[C@H]1C[C@H]2C(=O)N3CCC[C@H]3C(=O)N2[C@H]1c1cccc(OCCO)c1 ; composite z-score = 1.24

The reported value for COc1cc(NN2C(C(O)c3ccco3)C=CC3C(=O)N(C)C(=O)C32)cc(OC)c1OC (stereo not given) in terms of composite z-score is 0.509

Looking up CO[C@H]1O[C@H](CO)[C@@H](OC(=O)Nc2ccc3c(c2)OCO3)[C@H](OC(=O)Nc2ccc3c(c2)OCO3)[C@@H]1OC(=O)Nc1ccc2c(c1)OCO2 , I see its composite z-score listed as 1.7

###

assay: blockers of DNA damage checkpoint Chk1 activation – imaging, HeLa, hydroxyurea, phospho-Chk1 antibody, percent positive cells, primary screen (AID 1186); conditions: hydroxyurea-induced phospho-Chk1 immunofluorescence imaging, higher = more signal
QUANTITY MEASURED: z-score
Form field (numeric): enter value without unit.

For record COc1ccc(C#Cc2ccc3c(c2)[C@]2(C(=O)N3)[C@H](c3ccc(OCCO)cc3)N3[C@H](c4ccccc4)[C@H](c4ccccc4)OC(=O)[C@H]3[C@@H]2C(=O)NC[C@H](O)c2ccccc2)cc1 the listed z-score is -0.387

Looking up COc1ccc([Si](C)(C)[C@@H]2[C@@H](CCO)O[C@]3(C(=O)N(Cc4ccccc4)c4ccc(N5C(=O)c6cccc7cccc5c67)cc43)[C@H]2C)cc1 , I found its z-score recorded as -0.991

z-score recorded for this molecule, COCCOC(=O)N1C(=O)[C@@]2(c3cc(C#CC4=CCCCC4)ccc31)[C@H](c1ccccc1OCCO)N1[C@H](c3ccccc3)[C@H](c3ccccc3)OC(=O)[C@H]1[C@@H]2C(=O)N1CCN(c2ncccn2)CC1 , is -0.333

The reported z-score of the molecule COC(=O)[C@@H]1N=C(c2ccc(OCCCO)cc2)O[C@@H]1c1ccccc1 was -0.4

Per the record, COCCOC(=O)N1C(=O)[C@@]2(c3cc(C#CCCO)ccc31)[C@H](c1ccc(OCCO)cc1)N1[C@H](c3ccccc3)[C@H](c3ccccc3)OC(=O)[C@H]1[C@@H]2C(=O)Nc1nc2ccccc2s1 has z-score of -0.0639

O=C(NCc1ccc(F)cc1)[C@H]1C[C@H]2C(=O)NCC(=O)N2[C@H]1c1ccc(O)cc1 has a reported z-score of -0.339

Measured z-score of O=C1C2C=CC(C(O)C3CC=CCC3)N(Nc3ccccc3)C2C(=O)N1c1ccccc1 (configuration not stated) : 0.639

Just so you know, measured z-score for CCN(CC)c1ccc(N2CC=CC34O[C@@H]5/C=C\CCCOC(=O)C5[C@H]3C(=O)N(C(C)CO)[C@@H]4C2=O)cc1 (some centres not stated) came out at 0.296

Lab note: CCOC(=O)C[C@H]1[C@H](OC(=O)c2cc3ccccc3oc2=O)[C@@H](NC(=O)c2ccc3ccccc3n2)c2cc(OCCCO)ccc2N1C(=O)Cc1ccc(OC)cc1 gave z-score of 0.458

In plain terms, O=C1O[C@@H](c2ccccc2)[C@@H](c2ccccc2)N2[C@@H](c3ccc(O)cc3)[C@]3(C(=O)Nc4ccc(C#CCCO)cc43)[C@@H](C(=O)N3CCN(c4ncccn4)CC3)[C@H]12 has a documented z-score of -0.193

The recorded z-score for COc1cc(OC)c(C(O)C2C=CC3C(=O)N(Cc4ccccc4)C(=O)C3N2n2cnnc2)cc1Br (configuration not stated) is 0.0176

The measured z-score associated with COc1ccc(CCNC(=O)[C@@]2(Cc3ccccc3I)c3ccccc3C(=O)N(C3CCCCC3)[C@H]2c2ccc(CO)cc2)cc1 reads -0.312

Query COC(=O)C(CC#Cc1ccc2c(c1)[C@]1(C(=O)N2)[C@H](c2ccc(O)cc2)N2[C@H](c3ccccc3)[C@H](c3ccccc3)OC(=O)[C@H]2[C@@H]1C(=O)NC[C@H](O)c1ccccc1)C(=O)OC yields z-score of -0.0427

Just so you know, measured z-score for CCCCC(CC)C(O)C1C=CC2C(=O)N(C)C(=O)C2N1Nc1ccccc1 (configuration not stated) came out at 0.168

Per the records, this molecule ( CC(C)[Si]1(C(C)C)OCc2cc(C3CC3)nc(-c3ccc(Oc4ccccc4)cc3)c21 ) has z-score equal to -0.48

Lookup result for C=CC[C@]1(C(=O)N2CCOCC2)COC(c2ccc(OCCCO)cc2)=N1 ; measured z-score: -0.374

Given item COc1ccc(CCNC(=O)[C@@]2(c3ccc([N+](=O)[O-])cc3)CC(=O)N(C3CCCCC3)[C@@H]2c2ccc(CO)cc2)cc1 , the value recorded as its z-score is -0.192

Reported z-score for COC(=O)[C@@]1(Cc2ccc(OC)cc2)[C@H]2c3cc(C(=O)N(C)C)n(Cc4ccc(C)o4)c3C[C@H]2CN1C(=O)c1ccccc1 was 0.046

molecule O=C(O)[C@@H]1[C@@H]2C(=O)N(c3ccccc3)C(=O)[C@@H]2C[C@@H]1Sc1ccccc1 , z-score observed: 0.701

For this molecule ( C=CCN1Cc2ccccc2[C@@H]2OC(c3ccc(OCCCO)cc3)=N[C@]2(CC=C)C1=O ), measured z-score is -0.675

Short answer for Cc1ccc(S[C@]2(C(=O)O)CC(=O)N(C3CCCCC3)[C@@H]2c2ccc(CO)cc2I)cc1 : z-score was 0.542

Query COc1ccc(CCNC(=O)[C@@H]2c3ccccc3C(=O)N(C3CCCCC3)[C@H]2c2ccc(CO)cc2)cc1 yields z-score of 0.183
